target-of-assay: M-phase inducer phosphatase 1 (Homo sapiens, UniProt P30304)
Sequence (P30304 whole entry): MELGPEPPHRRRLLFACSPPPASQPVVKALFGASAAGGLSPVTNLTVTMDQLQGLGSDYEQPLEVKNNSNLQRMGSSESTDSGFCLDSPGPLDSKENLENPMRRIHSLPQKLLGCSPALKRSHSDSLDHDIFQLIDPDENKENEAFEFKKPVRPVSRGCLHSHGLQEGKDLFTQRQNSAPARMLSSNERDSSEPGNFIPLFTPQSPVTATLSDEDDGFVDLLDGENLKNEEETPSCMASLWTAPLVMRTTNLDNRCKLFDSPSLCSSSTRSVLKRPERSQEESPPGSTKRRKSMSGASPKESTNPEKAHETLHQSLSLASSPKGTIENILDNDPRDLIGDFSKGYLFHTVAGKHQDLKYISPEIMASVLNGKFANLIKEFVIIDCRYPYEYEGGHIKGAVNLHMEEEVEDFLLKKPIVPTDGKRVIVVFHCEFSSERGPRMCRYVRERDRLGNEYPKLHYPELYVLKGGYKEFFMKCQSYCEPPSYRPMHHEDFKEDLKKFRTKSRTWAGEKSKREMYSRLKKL
I'd be grateful if you could share measured IC50 for these entries.
Numbers only, in µM.

Here is how some compounds turned out for IC50.
| compound | target-of-assay | uom | IC50 |
| --- | --- | --- | --- |
| CC1=CC[C@H]2C(C)(C)CCC[C@]2(C)[C@H]1C[C@H](OS(=O)(=O)[O-])[C@H](C)CCCc1ccoc1.C[N+](C)=C(N)N | M-phase inducer phosphatase 1 (Homo sapiens, UniProt P30304) | µM | 7.8 |
| CC1=CC[C@H]2C(C)(C)CCC[C@]2(C)[C@H]1CC(CCCCc1ccoc1)OS(=O)(=O)O (stereo in doubt; 30) | M-phase inducer phosphatase 1 (Homo sapiens, UniProt P30304) | µM | 2.8 |
| C[C@H]1CC[C@H]2C(C)(C)CCC[C@]2(C)[C@H]1CC(CCc1ccccc1)C(C(=O)O)C(=O)O (stereo partly specified) | M-phase inducer phosphatase 1 (Homo sapiens, UniProt P30304) | µM | 6.3 |

For every record below, what is its IC50?
1. C#CC(C[C@H]1C(C)=CC[C@H]2C(C)(C)CCC[C@]12C)OS(=O)(=O)O (stereo in doubt; 21)
2. CC1=CC[C@H]2C(C)(C)CCC[C@]2(C)[C@H]1CC(CCc1ccccc1)OS(=O)(=O)O (stereo in doubt; 16)

Reply:
1. 115
2. 10.6
